src = the Deep4Chem optical property database

- method_description: solvent given as SMILES
- condition_details: in CCCCCC
value_type: emission maximum (nm)
Numbers only; they are read as nm.

**Query** If you can, please state the reported emission maximum value of "CC(C)(C)c1ccc(-c2nc3c4ccc(-c5cc6ccccc6c6ccccc56)cc4c4cc(-c5cc6ccccc6c6ccccc56)ccc4c3n2-c2ccc(C(C)(C)C)cc2)cc1" .
**Result** 382

**Query** Tell me the measured emission maximum of "CC(C)(C)c1ccc(-c2nc3c4ccc(-c5cccc6ccccc56)cc4c4cc(-c5cccc6ccccc56)ccc4c3n2-c2ccc(C(C)(C)C)cc2)cc1" , please.
**Result** 381

**Query** What measured emission maximum goes with "OC1(c2ccc(-c3cccs3)s2)CCC1" ?
**Result** 465

**Query** # input molecule: "CCCCCCC(CCCCCC)n1c(=O)c2c3ccc4cccc5c6cccc7ccc(c2c1=O)c(c76)c3c45" ; wanted: its emission maximum
**Result** 469

**Query** Any idea what emission maximum was measured for "Cc1cc(C)cc(NC(=O)c2sc(Br)nc2C)c1" ?
**Result** 400.6

* * *

- method_description: solvent given as SMILES
- condition_details: in c1ccccc1
value_type: emission maximum (nm)
The reply should contain only the number, in nm.

**Query** Given the compound "CCCCN(CCCC)c1ccc2c#cc3cc4c#cc5ccc(C(F)(F)F)cc5c#cc#cc5cc(C(F)(F)F)ccc5c#cc4cc3c#cc3ccc(N(CCCC)CCCC)cc3c#cc#cc2c1" , what is its reported emission maximum?
**Result** 504

**Query** What measured emission maximum goes with "CCOC(=O)c1ccc(NC(=O)COc2cc3c4c([nH]c3c(C)c2C)C(=O)CCC4)cc1" ?
**Result** 411.45

**Query** emission maximum for "Cn1c(=O)c(-c2ccccc2)nc2ccccc21" ?
**Result** 424

**Query** What value of measured emission maximum is listed for "CN(C)c1ccc(/C=C/C=C2\CC/C(=C\C=C\c3ccc(N(C)C)cc3)C2=O)cc1" ?
**Result** 567

**Query** # input compound: "Cc1nc2c(ccc3ccc(O)cc32)oc1=O" ; wanted: its emission maximum
**Result** 461

* * *

- method_description: solvent given as SMILES
- condition_details: in CCCCCC
// label = class 1 if emission maximum is not less than 500 nm, otherwise class 0

**Query** Given the entry "CC(C)[Si](C#Cc1c2cc3ccccc3cc2c(C#C[Si](C(C)C)(C(C)C)C(C)C)c2nc3ccccc3nc12)(C(C)C)C(C)C" , answer whether its emission maximum meets or surpasses 500 nm.
**Result** class 1

**Query** hey, is emission maximum for this one >= 500 nm? "c1ccc2c(-c3cc(-c4nccs4)nc(-c4nccs4)c3)cccc2c1"
**Result** class 0

**Query** Does the reported emission maximum for "CN(C)c1ccc(C2=Cc3cc(Cl)nc[n+]3[B-](F)(F)O2)cc1" fall at or above the 500 nm mark?
**Result** class 0

**Query** Confirm if emission maximum reported for the molecule "COc1cccc(-c2c3ccccc3c3n2[B-](F)(F)[N+]2=Cc4c5ccccc5c(-c5cccc(OC)c5)n4[B-](F)(F)[N+]2=C3)c1" is 500 nm or above.
**Result** class 1

**Query** Could you verify whether the entry "CCC1=C(C)C2=C(c3ccc(-c4c5ccccc5c(-c5ccccc5)c5ccccc45)cc3)c3c(C)c(CC)c(C)n3[B-](F)(F)[N+]2=C1C" shows emission maximum of no less than 500 nm?
**Result** class 1

**Query** Say whether "Cc1cc(C)n2c1C=C1C(=O)N(C)C(c3ccc([N+](=O)[O-])cc3)=[N+]1[B-]2(F)F" shows emission maximum of 500 nm or more.
**Result** class 1

**Query** Answer whether emission maximum of "COc1cc(OC)cc(C2=[O+][B-](F)(F)OC(c3ccccc3)=C2)c1" is greater than or equal to 500 nm.
**Result** class 0
